- Tested on: SW480
- protocol_summary: cell viability (CellTiter-Glo) relative to plate median (fraction of plate median); higher = more viable cells
- details: 5 µM; treatment time 24 h; reporter: 7TFP
result_type: cell viability
Give only the figure.

Value lookup for cell viability; key = "O=C1C=CC(=C(c2ccc(O)cc2)c2ccc(O)cc2)C=C1"
1.01

Next compound: "COc1c(Cl)ccc(Cl)c1C(=O)O"
0.99

Next compound: "C=C(C)[C@@H]1CC[C@]2(C(=O)O)CC[C@]3(C)[C@H](CC[C@@H]4[C@@]5(C)CC[C@H](O)C(C)(C)[C@@H]5CC[C@]43C)[C@@H]12"
1

Next compound: C=C[C@@]1(C)CC(=O)[C@@]2(O)[C@](C)(O1)[C@@H](O)[C@@H](O)C1C(C)(C)CC[C@H](O)[C@@]12C (some centres undefined)
1.02

Next compound: "C[C@]12CC[C@@H]3c4ccc(OS(=O)(=O)O)cc4CC[C@H]3[C@@H]1CCC2=O"
1

Next compound: "CC(=O)OC[C@H]1O[C@@H](Oc2cc(OC(C)=O)c3c(=O)cc(-c4ccc(OC(C)=O)cc4)oc3c2)[C@H](OC(C)=O)[C@@H](OC(C)=O)[C@@H]1OC(C)=O"
0.992

Next compound: "CC1=C(/C=C/C(C)=C/C=C/C(C)=C/C=C/C=C(C)/C=C/C=C(C)/C=C/C2=C(C)CCCC2(C)C)C(C)(C)CCC1"
0.984

Next compound: "COc1ccc2ccc(=O)oc2c1CC=C(C)C"
0.985

Next compound: "COc1ccc(C(C)=O)c(OC)c1"
0.977

Next compound: "CC(=O)c1cc(CC=C(C)C)c(O)c(CC=C(C)C)c1"
0.95

Next compound: CC1(C)C(=O)CC[C@@]2(C)C1C[C@@H](O)[C@@]1(C)C3=CC(=O)O[C@@H](c4ccoc4)[C@]3(C)CCC21 (some centres undefined)
0.969

Next compound: CN(CCOc1ccc(CC2SC(=O)NC2=O)cc1)c1ccccn1 (centres undefined)
0.949

Next compound: C[C@H]1O[C@H](O[C@H]2[C@H](O)[C@@H](O)[C@@H](O[C@H]3[C@H](O)[C@@H](O)C(O)O[C@@H]3CO)O[C@@H]2CO)[C@H](O)[C@@H](O)[C@@H]1N[C@H]1C=C(CO)[C@@H](O)[C@H](O)[C@H]1O (some centres undefined)
0.988

Next compound: "COc1ccc([C@@H]2CC(=O)c3c(O)cc(O)cc3O2)cc1O"
0.989

Next compound: "COc1c(O)cccc1O"
1.01

Next compound: OCC(O)CN1CCN(c2ccccc2)CC1 (centres undefined)
0.964

Next compound: "CC1(C)CCC[C@]2(C)[C@@H]3[C@H]1[C@@H](O)[C@@]2(C)C[C@H]3O"
1.12

Next compound: "COc1ccc(-c2coc3cc(O)ccc3c2=O)c(OC)c1"
1.04

Next compound: "CC(=O)O[C@H]1CC[C@]2(C)C3=C(CC[C@H]2C1(C)C)[C@]1(C)CC[C@H]([C@H](C)CCC=C(C)C)[C@@]1(C)CC3"
0.953

Next compound: "C[C@H]1C[C@@H]2[C@H]([C@@H](O)C[C@@]3(C)[C@H]2CC[C@]3(O)C(=O)COC(=O)CCC(=O)O)[C@@]2(C)C=CC(=O)C=C12"
0.921

Next compound: "CN(C)c1ccc(C(=C2C=CC(=[N+](C)C)C=C2)c2ccc(N(C)C)cc2)cc1"
0.679

Next compound: O=C(CCc1ccc(O)cc1)c1c(O)cc(O)cc1O[C@@H]1OC(CO)[C@@H](O)[C@@H](O)C1O (some centres undefined)
1.03

Next compound: CNC1(C)C2CCC(C2)C1(C)C (centres undefined)
0.924

Next compound: "CNCCC=C1c2ccccc2CCc2ccccc21"
0.972

Next compound: "CN(C)CCCO[C@@H]1[C@H]2OC(C)(C)O[C@H]2O[C@@H]1[C@H](O)CO"
0.96

Next compound: "COC(=O)CC[C@@H](C)[C@H]1CC[C@H]2[C@@H]3[C@H](O)C[C@@H]4C[C@H](O)CC[C@]4(C)[C@H]3C[C@H](O)[C@]12C"
1

Next compound: "O=C1C(O)=C(O)C(=O)C(O)=C1O"
0.944

Next compound: "CCCc1ncc(C[n+]2ccccc2C)c(N)n1"
0.972

Next compound: CC(=O)c1oc2c(C)c3oc(=O)cc(C)c3cc2c1C [2-Acetyl-3,5,9-trimethylfuro[3,2-g]-chromen-7-one (VFT-04)]
1.08
